Test system: LXRb homodimer (NR concentration 270 nM)
Assay: PBM binding z-score (relative to random genomic background probes); higher = stronger binding; sequences stand for … in GC…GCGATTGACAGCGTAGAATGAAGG
Metric Name: PBM binding z-score
Number, no unit, nothing else.

Qu. Param item = GCTATTAGTCGAAAGGGCAACCGAATGATTCTCG ; retrieve measured PBM binding z-score.
Ans. -0.262

Qu. Field request: PBM binding z-score | item: GCTACTGGGGCAAAGCAGGTTACCATAAGGTTGG
Ans. -0.276

Qu. Record request: PBM binding z-score value, item CGTCATAGTTCAAGGTAACGTAACAGAAAGCAGC
Ans. 0.174

Qu. Which PBM binding z-score value is on record for TCTGCTAGGTGAACGATGGTCAGCTAATCTGCTA ?
Ans. -1.35

Qu. State the recorded PBM binding z-score for this entry: CAAACTAGGTCACCGGAAGGTCAAATTCCGCATG
Ans. 1.95

Qu. What measured PBM binding z-score goes with TCTCGGAGGACACGAAGGTCAGAGATTTCCAGAG ?
Ans. -0.387

Qu. Param item = ACCAGCAGGCCAAGTTTGGGTCACTCAAACAAAG ; retrieve measured PBM binding z-score.
Ans. -0.887

Qu. What does the data say about its PBM binding z-score? Entry: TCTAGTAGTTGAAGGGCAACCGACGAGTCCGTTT
Ans. -0.134

Qu. Entry CTACCAAGGTGAACAAGCTCGTTGATTACTATTC : reported PBM binding z-score = ?
Ans. -0.421

Qu. Give its PBM binding z-score value. Item: ATCGAAAGGTCGAAGGTGAGTGTACCCACCCGAA
Ans. 0.755

Qu. Requested read-out: PBM binding z-score. Entry: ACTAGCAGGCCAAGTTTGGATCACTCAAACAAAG
Ans. -0.521

Qu. Please look up its PBM binding z-score: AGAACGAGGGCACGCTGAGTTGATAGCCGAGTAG
Ans. -0.961

Qu. Request the reported PBM binding z-score associated with GGAACGAAGGCATTCGAGTTGATAGCATGGCGAT
Ans. -1.23

Qu. Entry ACTGGTTGGTCAGCTGAGGTCACACACAATTCGG has what PBM binding z-score?
Ans. 0.876

Qu. Would you mind telling me what PBM binding z-score value was observed for CCTTACGGGTCACGAGGTTATAGTACGACGAGCG ?
Ans. 0.224

Qu. Recorded PBM binding z-score of CCGACTGGGGCAGAATGGTTACCATACCATCCGG , please.
Ans. -1.2

Qu. What measured PBM binding z-score goes with CAAACTAGGTCAAGAGATCAAAGTCCGCTTCCCG ?
Ans. 0.064

Qu. Which PBM binding z-score is reported for this sequence? TAGCCTAGATCAGATCGGGCCAGTATACGCTATA
Ans. -1.2

Qu. Any idea what its PBM binding z-score is? The sequence is CCGACTGGGGCCGAAAGGTTACCATACCATCCGG
Ans. -1.22

Qu. Which value of PBM binding z-score has been reported for CAAACTACGTCAAAGGTCAAAGTCGAGCCAACCA in the records?
Ans. 2.75

Qu. Find the recorded PBM binding z-score belonging to CCTAGCAGGCCAGGGTCACTCAAGCATTTCGCTT and report it.
Ans. -1.05

Qu. State the recorded PBM binding z-score for this entry: CGTCCAAGGTCAAAGGTCAGTTAAGAGATGACGG
Ans. 2.51

Qu. Reported PBM binding z-score, sequence ACTATTTGGTCAGCTGAGGTCACACACAATTCGG : ____
Ans. 1.88

Qu. Form field: reported PBM binding z-score of CCGAGTAGGTTATGGGGCATTAAGGCAACGGTGA
Ans. 0.086

Qu. Recorded PBM binding z-score of TCTGCTAGGTCAGTTGGTAAGCTAACGAGCTGCC , please.
Ans. 0.503

Qu. What does the data say about its PBM binding z-score? Entry: TCATATAGGTAAAGGCTAGGTGAAAGTCCGATCT
Ans. -0.41
